method_summary: melting temperature; fluorescence melt of hairpins on a sequencing array, two-state fit, raised by 9.35 °C to match UV melts
condition_description: sodium 0.088 M
Tm reference
Give the quantity in °C, number only.

Sample answers from the record:
GCGACAGGTCGC ((((....))))
56.2
GGCAGCGAAAGCTCCGCC ((((((....)))..)))
56
GATCTACATGTAGATC ((((((....))))))
52.5
GTAGCGGGAAACCGTTGC (.(.(((....))).).)
35.3
GTTAGCGGAAACGCTAGC (.(((((....))))).)
49.3

Kindly review the next sequence as well.
INPUT: Which Tm is reported for this sequence? GCGAGTTTTCGC ((((....))))
OUTPUT: 53.3

====

method_summary: melting temperature; fluorescence melt of hairpins on a sequencing array, two-state fit, raised by 9.35 °C to match UV melts
condition_description: sodium 0.088 M
Given measured Tm, output 1 (yes) if it is greater than or equal to 50 °C and 0 (no) if not.

GCTATGCGAAAGCATGGC ((.((((....)))).))
1 (yes)
GCCAGGCGAAAGCCGCGC ((..(((....)))..))
1 (yes)
GCAAGCTCGAAAGAGTGC (((..(((....))))))
0 (no)
GATCCAGGAAACTGGACC (.(((((....))))).)
0 (no)

Below: the item to evaluate.
INPUT: Is it the case that CGATCGGAAACGAGTCG ((((((....))).))) has Tm reaching or exceeding 50 °C?
OUTPUT: 0 (no)

====

method_summary: folding enthalpy; higher = less favourable; fluorescence melt of hairpins on a sequencing array, two-state fit
condition_description: sodium 0.088 M
value_type: folding enthalpy (kcal/mol)
Lab book: enter the figure in kcal/mol, no units written.

GAAATGAAAATTTC (((((....)))))
-12.2

INPUT: Look up folding enthalpy for this sequence: GATCTCCATAGAGATC ((((((....))))))
OUTPUT: -33.4

INPUT: Any idea what its folding enthalpy is? The sequence is GGGTCTGGAAACGGATCC ((.((.(....).)).))
OUTPUT: -33

INPUT: Quick one: folding enthalpy for GGGTTCGGAAACGAACTC (.(((((....))))).) ?
OUTPUT: -23.3

INPUT: Any idea what its folding enthalpy is? The sequence is GGACACGAAAGTGGGTCC ((((((....)))..)))
OUTPUT: -19.9

INPUT: Which folding enthalpy is reported for this sequence? GATCCCGCGGGGGATC ((((((....))))))
OUTPUT: -31

INPUT: folding enthalpy for GATCCCGCCTGGGATC ((((((....)))))) ?
OUTPUT: -39.1

INPUT: Could you tell me which folding enthalpy is on file for GCAGCGCGAAAGCGAAGC ((..(((....)))..)) ?
OUTPUT: -18.7

INPUT: Item GAAGCCGAAAGGCTGTTC ((((((....)))..))) has what recorded folding enthalpy?
OUTPUT: -10.4

INPUT: So what's the measured folding enthalpy for this one? GGAAATCGAAAGATGTCC (((.(((....))).)))
OUTPUT: -29

INPUT: Quick check: folding enthalpy of GCTGCGCGAAAGCGGGGC ((..(((....)))..)) ?
OUTPUT: -26.9

INPUT: What does the data say about its folding enthalpy? Entry: GCTGAAGGAAACTCCAGC ((((.((....)).))))
OUTPUT: -27.8

INPUT: Would you kindly share the measured folding enthalpy for GATCATGTGCATGATC ((((((....)))))) ?
OUTPUT: -32.3

INPUT: Need folding enthalpy of GATCAAGACTTTGATC ((((((....)))))) , thanks.
OUTPUT: -35

INPUT: So what does the record say about folding enthalpy for GATCAGACTTCTGATC ((((((....)))))) ?
OUTPUT: -36.3
